- System Under Test: Recombinant human CD38 (Homo sapiens, UniProt P28907)
- Sequence (P28907 1-300): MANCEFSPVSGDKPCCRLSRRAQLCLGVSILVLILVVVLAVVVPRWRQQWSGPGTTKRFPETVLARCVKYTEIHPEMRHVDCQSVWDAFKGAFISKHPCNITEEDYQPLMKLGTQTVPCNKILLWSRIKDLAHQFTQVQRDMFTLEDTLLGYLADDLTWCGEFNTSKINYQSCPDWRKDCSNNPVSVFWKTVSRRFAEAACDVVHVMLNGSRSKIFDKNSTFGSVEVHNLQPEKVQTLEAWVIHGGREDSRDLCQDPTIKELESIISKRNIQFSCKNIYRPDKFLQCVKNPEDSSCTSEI
- Protocol Summary: Human CD38 hydrolase assay (fluorescence-based, ε-NAD substrate)
- Test Context: recombinant human CD38 0.8 nM, 4 μM ε-NAD, 30 min preincubation at 25° C.
Result Type: IC50

| Smiles Input | Result |
| --- | --- |
| O=C(N[C@H]1CC[C@H](N2CCCC2)CC1)c1nc(-n2ccnc2)nn2cccc12 | ≤ 0.04 µM |
| O=C(N[C@H]1CC[C@H](N2CC[C@H](F)C2)CC1)c1cn2ncnc2c(-n2ccnc2)n1 | ≤ 1 µM |
| Cc1cncn1-c1nc(C(=O)N[C@H]2CC[C@H](NCC(F)(F)F)CC2)c2cccn2n1 | ≤ 0.04 µM |
| O=C(N[C@H]1CC[C@H](N2CC[C@@H](F)C2)CC1)c1cn2ccnc2c(-n2ccnc2)n1 | ≤ 0.1 µM |
| O=C(N[C@H]1CC[C@H](N2CC(F)(F)C2)CC1)c1cn2ncnc2c(-n2ccnc2)n1 | ≤ 0.04 µM |
| O=C(N[C@H]1CC[C@H](NCC(F)(F)F)CC1)c1nc(-n2ccnc2)cn2ncnc12 | ≤ 0.04 µM |
| O=C(N[C@H]1CC[C@H](NCC(F)(F)F)CC1)c1nc(-c2cncs2)nn2cccc12 | ≤ 0.1 µM |
| O=C(NC1CCN(CC(F)(F)F)CC1)c1cn2ncnc2c(-n2ccnc2)n1 | ≤ 1 µM |

###

- System Under Test: Recombinant human CD38 (Homo sapiens)
- Protocol Summary: Human CD38 hydrolase assay (fluorescence-based, ε-NAD substrate)
- Test Context: recombinant human CD38 0.8 nM, 4 μM ε-NAD, 30 min preincubation at 25° C.
Form field: IC50 (one value per entry).

| Molecule | IC50 |
| --- | --- |
| O=C(N[C@H]1CC[C@H](N2CC(C(F)(F)F)C2)CC1)c1cn2ncnc2c(-n2ccnc2)n1 [Example 56] | ≤ 100 nM |
| O=C(NC1CCOCC1)c1nc(-n2ccnc2)nc2ncccc12 [Example 3] | ≤ 40 nM |
| O=C(N[C@H]1CC[C@H](N2CC[C@H](O)C2)CC1)c1nc(-n2ccnc2)nn2cccc12 [Example 23] | ≤ 40 nM |
| Cn1cncc1-c1nc(C(=O)N[C@H]2CC[C@H](NCC(F)(F)F)CC2)c2cccn2n1 [Example 17] | ≤ 40 nM |

###

- Protocol Summary: PK brain permeability after single oral gavage
- Assay type: in vivo, C57BL/6 mice
- Test Context: male, C57BL/6, mouse, brain, po, 10 mg/kg, mice, 10 mg/kg oral, 2 hours post dose; read-out: total brain conc.
Result Type: concentration at 2 h (nM)

| Smiles Input | Reading Unit | Result |
| --- | --- | --- |
| O=C(N[C@H]1CC[C@H](N2CCC(F)(F)C2)CC1)c1cn2ncnc2c(-n2ccnc2)n1 | nM | 2570 |
| O=C(N[C@H]1CC[C@H](N2CC(F)(F)C2)CC1)c1cn2ncnc2c(-n2ccnc2)n1 | nM | 2160 |
| O=C(N[C@H]1CC[C@H](N2CC[C@@H](F)C2)CC1)c1nc(-n2ccnc2)nn2cccc12 | nM | 3320 |
| O=C(N[C@H]1CC[C@H](NCC(F)(F)F)CC1)c1cn2ccnc2c(-n2ccnc2)n1 | nM | 864 |
| O=C(N[C@H]1CC[C@H](NCC(F)(F)F)CC1)c1nc(-n2ccnc2)nc2ncccc12 | nM | 572 |
| O=C(N[C@H]1CC[C@H](NCC(F)(F)F)CC1)c1nc(-n2ccnc2)nn2cccc12 | nM | 4920 |
| O=C(N[C@H]1CC[C@H](NCC(F)(F)F)CC1)c1cn2nccc2c(-n2ccnc2)n1 | nM | 1500 |
| O=C(N[C@H]1CC[C@H](N2CC[C@H](F)C2)CC1)c1nc(-n2ccnc2)nn2cccc12 | nM | 3380 |

###

Items are presented alongside their recorded fraction unbound at 4 h.
- Protocol Summary: Tissue binding assay (equilibrium dialysis), brain homogenate
- Format: in vitro ADME
- Test Context: mouse brain homogenate, dialysis 4 hours at 37° C., pH 7.4

| Compound | fraction unbound at 4 h |
| --- | --- |
| O=C(N[C@H]1CC[C@H](N2CCC(F)(F)C2)CC1)c1cn2ccnc2c(-n2ccnc2)n1 [Example 41] | 0.15 |
| O=C(N[C@H]1CC[C@H](NCC(F)(F)F)CC1)c1cn2ncnc2c(-n2ccnc2)n1 [Example 20] | 0.34 |
| O=C(N[C@H]1CC[C@H](N2CCC(F)(F)C2)CC1)c1cn2ncnc2c(-n2ccnc2)n1 [Example 48] | 0.15 |

###

- System Under Test: Recombinant human CD38 (Homo sapiens, UniProt P28907)
- Protocol Summary: Human CD38 hydrolase assay (fluorescence-based, ε-NAD substrate)
- Test Context: recombinant human CD38 0.8 nM, 4 μM ε-NAD, 30 min preincubation at 25° C.
pIC50: −log10 of the molar value.
Result Type: pIC50

| Molecule | Result |
| --- | --- |
| O=C(N[C@H]1CC[C@H](N2CCC(F)(F)C2)CC1)c1cn2ncnc2c(-n2ccnc2)n1 | ≥ 7.00 |
| O=C(N[C@H]1CC[C@H](N2CC[C@H](F)C2)CC1)c1cn2nccc2c(-n2ccnc2)n1 | ≥ 7.00 |
| O=C(N[C@H]1CC[C@H](NCC(F)(F)F)CC1)c1cn2nccc2c(-n2ccnc2)n1 | ≥ 7.40 |
| O=C(N[C@H]1CC[C@H](N2CCS(=O)(=O)CC2)CC1)c1cn2ncnc2c(-n2ccnc2)n1 | ≥ 6.00 |
| O=C(N[C@H]1CC[C@H](N2CC[C@@H](F)C2)CC1)c1cn2nccc2c(-n2ccnc2)n1 | ≥ 7.00 |
| O=C(N[C@H]1CC[C@H](N2CC[C@@H](F)C2)CC1)c1cn2cccc2c(-n2ccnc2)n1 | ≥ 6.00 |
| O=C(N[C@H]1CC[C@H](N2CC[C@H](F)C2)CC1)c1nc(-n2ccnc2)nc2ncccc12 | ≥ 7.00 |
| O=C(N[C@H]1CC[C@H](NCC(F)(F)F)CC1)c1cc2cccnc2c(-c2cncs2)n1 | ≥ 6.00 |
| O=C(N[C@H]1CC[C@H](NCC(F)(F)F)CC1)c1nc(-c2cncs2)cn2cccc12 | ≥ 6.00 |
| O=C(N[C@H]1CC[C@H](N2CC[C@@H](F)C2)CC1)c1nc(-n2ccnc2)c2cccn2n1 | ≥ 5.00 |
| O=C(N[C@H]1CC[C@H](N2CC[C@@H](O)C2)CC1)c1nc(-n2ccnc2)nn2cccc12 | ≥ 7.40 |
| O=C(N[C@H]1CC[C@H](N2CC[C@H](F)C2)CC1)c1cn2cccc2c(-n2ccnc2)n1 | ≥ 6.00 |
| O=C(NC1CCC2(CC1)CN(CC(F)(F)F)C2)c1nc(-n2ccnc2)nn2cccc12 | ≥ 7.40 |
| O=C(N[C@H]1CC[C@H](NCC(F)F)CC1)c1nc(-n2ccnc2)nn2cccc12 | ≥ 7.40 |
| O=C(N[C@H]1CC[C@H](NCC(F)F)CC1)c1cn2ccnc2c(-n2ccnc2)n1 | ≥ 6.00 |
| O=C(NC1CC2(CC(NCC(F)(F)F)C2)C1)c1nc(-n2ccnc2)nn2cccc12 (single isomer, unassigned) [Example 10] | ≥ 7.40 |

###

The entries below come with measured concentration at 2 h values attached.
- Protocol Summary: PK brain permeability after single oral gavage
- Type: in vivo, C57BL/6 mice
- Test Context: male, C57BL/6, mouse, brain, po, 10 mg/kg, mice, 10 mg/kg oral, 2 hours post dose; read-out: total brain conc.

| Smiles Input | concentration at 2 h (nM) |
| --- | --- |
| O=C(N[C@H]1CC[C@H](NCC(F)(F)F)CC1)c1cn2ncnc2c(-n2ccnc2)n1 | 1420 |
| O=C(N[C@H]1CC[C@H](N2CCC(F)(F)C2)CC1)c1cn2ccnc2c(-n2ccnc2)n1 | 1580 |
| O=C(N[C@H]1CC[C@H](N2CCC(F)(F)C2)CC1)c1nc(-n2ccnc2)nn2cccc12 | 8370 |

###

Property: IC50; scope: individual molecules
- System Under Test: Recombinant human CD38 (Homo sapiens)
- Protocol Summary: Human CD38 hydrolase assay (fluorescence-based, ε-NAD substrate)
- Test Context: recombinant human CD38 0.8 nM, 4 μM ε-NAD, 30 min preincubation at 25° C.

| Molecule | IC50 |
| --- | --- |
| O=C(NC1CCOCC1)c1nc(-n2ccnc2)cc2nccn12 [Example 1] | ≤ 100 nM |
| CN(CC(F)(F)F)[C@H]1CC[C@H](NC(=O)c2cn3ncnc3c(-n3ccnc3)n2)CC1 [Example 47] | ≤ 100 nM |
| O=C(N[C@H]1C[C@H](NCC(F)(F)F)C1)c1nc(-n2ccnc2)nn2cccc12 [Example 11] | ≤ 40 nM |
| O=C(N[C@H]1CC[C@H](N2CC[C@H](F)C2)CC1)c1nc(-n2ccnc2)nn2cccc12 [Example 13] | ≤ 40 nM |
| CC1(F)CN([C@H]2CC[C@H](NC(=O)c3cn4ncnc4c(-n4ccnc4)n3)CC2)C1 [Example 46] | ≤ 100 nM |
| O=C(N[C@H]1CC[C@H](NCC(F)(F)F)CC1)c1nc(-n2ccnc2)nc2ncccc12 [Example 4] | ≤ 40 nM |
| O=C(N[C@H]1CC[C@H](N2CC[C@@H](F)C2)CC1)c1nc(-n2ccnc2)nn2cccc12 [Example 14] | ≤ 40 nM |
| O=C(N[C@H]1CC[C@H](NCC(F)(F)F)CC1)c1cn2ncnc2c(-n2ccnc2)n1 [Example 20] | ≤ 40 nM |
| CO[C@@H]1CCN([C@H]2CC[C@@H](NC(=O)c3cn4ncnc4c(-n4ccnc4)n3)CC2)C1 [Example 54] | ≤ 1000 nM |
| O=C(N[C@H]1CC[C@@H](N2CCSCC2)CC1)c1cn2ncnc2c(-n2ccnc2)n1 [Example 55] | ≤ 1000 nM |
| O=C(NC1CC2(CC(NCC(F)(F)F)C2)C1)c1nc(-n2ccnc2)nn2cccc12 (single isomer, unassigned) [Example 9] | ≤ 40 nM |
| O=C(N[C@H]1CC[C@H](NCC(F)F)CC1)c1cn2nccc2c(-n2ccnc2)n1 [Example 37] | ≤ 100 nM |
| O=C(N[C@H]1CC[C@H](N2CC[C@@H](F)C2)CC1)c1cn2ncnc2c(-n2ccnc2)n1 [Example 26] | ≤ 100 nM |
| O=C(N[C@H]1CC[C@H](NCC(F)(F)F)CC1)c1nc(-n2ccnc2)c2cccn2n1 [Example 16] | ≤ 1000 nM |
| O=C(N[C@H]1CC[C@H](N2CCOCC2)CC1)c1cn2ncnc2c(-n2ccnc2)n1 [Example 49] | ≤ 1000 nM |
| O=C(N[C@H]1CC[C@H](NCC(F)(F)F)CC1)c1cc2cccnc2c(-n2ccnc2)n1 [Example 6] | ≤ 10000 nM |
| O=C(N[C@H]1CC[C@H](NCC(F)(F)F)CC1)c1nc(-n2ccnc2)nn2cccc12 [Example 29] | ≤ 40 nM |
| O=C(N[C@H]1CC[C@H](NCC(F)(F)F)CC1)c1cc2ncnn2c(-n2ccnc2)n1 [Example 60] | ≤ 1000 nM |
| O=C(N[C@H]1CC[C@H](NCC(F)(F)F)CC1)c1nc(-c2cncn2CCO)nn2cccc12 [Example 18] | ≤ 40 nM |
| O=C(N[C@H]1CC[C@H](N2CC[C@H](F)C2)CC1)c1cn2ccnc2c(-n2ccnc2)n1 [Example 40] | ≤ 1000 nM |
| O=C(N[C@H]1CC[C@H](NCC(F)(F)F)CC1)c1cn2ccnc2c(-n2ccnc2)n1 [Example 19] | ≤ 40 nM |
| O=C(N[C@H]1CC[C@H](N2CCC(F)(F)C2)CC1)c1nc(-n2ccnc2)nn2cccc12 [Example 12] | ≤ 40 nM |
| CC(F)(F)CN[C@H]1CC[C@H](NC(=O)c2cn3ncnc3c(-n3ccnc3)n2)CC1 [Example 57] | ≤ 1000 nM |
| O=C(N[C@H]1CC[C@H](N2CCC(F)(F)C2)CC1)c1cn2ccnc2c(-n2ccnc2)n1 [Example 41] | ≤ 100 nM |
| O=C(N[C@H]1CC[C@H](N2CC[C@@H](F)C2)CC1)c1nc(-n2ccnc2)nc2ncccc12 [Example 58] | ≤ 100 nM |
| O=C(N[C@H]1CC[C@@H](N2CCCC2)CC1)c1nc(-n2ccnc2)nn2cccc12 [Example 44] | ≤ 1000 nM |
| O=C(N[C@H]1CC[C@H](NCC(F)(F)F)CC1)c1cn2cccc2c(-n2ccnc2)n1 [Example 15] | ≤ 40 nM |
